Cited source: patent US20250242064A1

Assay: in vivo
Design: species or system mice
Conditions: male, NOD.Cg-Rag1tm1Mom Il2rgtm1Wjl/SzJ (NRG), mouse, iv, total radioactivity, Biodistribution: Small Intestine
Where a SMILES comes first, the peptide text is derived from it. Bridges are numbered along the chain shown (N, C = ends). [ ]: non-standard residue; d: D form. The star is where a group is joined. X3 = O=C(O)CN1CCN(CC(=O)O)CCN(CC(=O)N[C@@H](CS(=O)(=O)O)C(=O)N[C@@H](CCCCNC(=O)CCCc2ccc(Br)cc2)C(=O)*)CCN(CC(=O)O)CC1; X1 = O=C(O)CN1CCN(CC(=O)O)CCN(CC(=O)N[C@@H](CS(=O)(=O)O)C(=O)N[C@@H](CCCCNC(=O)CCCc2ccc(I)cc2)C(=O)*)CCN(CC(=O)O)CC1; 2Nal = N[C@@H](Cc1ccc2ccccc2c1)C(=O)O; Lys(iPr) = CC(C)NCCCC[C@H](N)C(=O)O
Measured Property: tissue uptake at 120 h

>  <Molecule>
CC(C)NCCCC[C@H](NC(=O)[C@H]1CCC(=O)N[C@@H](CCCCNC(=O)[C@H](CCCCNC(=O)CCCc2ccc(Br)cc2)NC(=O)[C@H](CS(=O)(=O)O)NC(=O)CN2CCN(CC(=O)O)CCN(CC(=O)O)CCN(CC(=O)O)CC2)C(=O)N[C@@H](Cc2ccc(O)cc2)C(=O)N[C@@H](CCCCNC(C)C)C(=O)N[C@H](CCCNC(=N)N)C(=O)N[C@@H](Cc2ccc3ccccc3c2)C(=O)N[C@H](C)C(=O)N1)C(N)=O [[^177Lu]Lu-BL34L20, metal not drawn] (K(X3)Y[Lys(iPr)][dR][2Nal][dA][dE][Lys(iPr)]-NH2; lactam N-7)

>  <Result>
0.08 %ID/g

$$$$
>  <Molecule>
CC(C)NCCCC[C@H](NC(=O)[C@H]1CCC(=O)N[C@@H](CCCCNC(=O)[C@H](CCCCNC(=O)CCCc2ccc(I)cc2)NC(=O)[C@H](CS(=O)(=O)O)NC(=O)CN2CCN(CC(=O)O)CCN(CC(=O)O)CCN(CC(=O)O)CC2)C(=O)N[C@@H](Cc2ccc(O)cc2)C(=O)N[C@@H](CCCCNC(C)C)C(=O)N[C@H](CCCNC(=N)N)C(=O)N[C@@H](Cc2ccc3ccccc3c2)C(=O)N[C@H](C)C(=O)N1)C(N)=O [[^177Lu]Lu-BL34L11, metal not drawn] (K(X1)Y[Lys(iPr)][dR][2Nal][dA][dE][Lys(iPr)]-NH2; lactam N-7)

>  <Result>
0.21 %ID/g

$$$$

###

Experiment: in vivo
Parameters: species or system mice
Conditions: male, NOD.Cg-Rag1tm1Mom Il2rgtm1Wjl/SzJ (NRG), mouse, iv, total radioactivity, Biodistribution: Pancreas
Where a SMILES comes first, the peptide text is derived from it. Bridges are numbered along the chain shown (N, C = ends). [ ]: non-standard residue; d: D form. The star is where a group is joined. X1 = O=C(O)CN1CCN(CC(=O)O)CCN(CC(=O)N[C@@H](CS(=O)(=O)O)C(=O)N[C@@H](CCCCNC(=O)CCCc2ccc(I)cc2)C(=O)*)CCN(CC(=O)O)CC1; 2Nal = N[C@@H](Cc1ccc2ccccc2c1)C(=O)O; Lys(iPr) = CC(C)NCCCC[C@H](N)C(=O)O
Measured Property: tissue uptake at 24 h (%ID/g)

>  <Compound>
CC(C)NCCCC[C@H](NC(=O)[C@H]1CCC(=O)N[C@@H](CCCCNC(=O)[C@H](CCCCNC(=O)CCCc2ccc(I)cc2)NC(=O)[C@H](CS(=O)(=O)O)NC(=O)CN2CCN(CC(=O)O)CCN(CC(=O)O)CCN(CC(=O)O)CC2)C(=O)N[C@@H](Cc2ccc(O)cc2)C(=O)N[C@@H](CCCCNC(C)C)C(=O)N[C@H](CCCNC(=N)N)C(=O)N[C@@H](Cc2ccc3ccccc3c2)C(=O)N[C@H](C)C(=O)N1)C(N)=O [[^177Lu]Lu-BL34L11, metal not drawn] (K(X1)Y[Lys(iPr)][dR][2Nal][dA][dE][Lys(iPr)]-NH2; lactam N-7)

>  <Measured Property>
tissue uptake at 24 h

>  <Unit Of Measure>
%ID/g

>  <Number>
1.05

$$$$
